# Tested on: G3BP1 NFT2
# Type: binding, human
# condition_context: library DMS-CoV; bait G3BP1 NFT2; prey N; peptide APRITFGGPSDSTGSN; listed as aa = residue placed at this position; column sums to 1
DMS PSSM value, G (position 14) below 0.009 gives 0.0; DMS PSSM value, G (position 14) at or above it gives 1.0.

>  <sequence>
APRITFGGPSDSTGSN G14S (APRITFGGPSDSTSSN)

>  <study_system>
G3BP1 NFT2

>  <assigned_category>
0.0

$$$$
>  <sequence>
APRITFGGPSDSTGSN G14W (APRITFGGPSDSTWSN)

>  <study_system>
G3BP1 NFT2

>  <assigned_category>
1.0

$$$$

## Task DMS PSSM value, G (position 14) >= 0.009 for APRITFGGPSDSTGSN G14F (APRITFGGPSDSTFSN) ?
## Result 1.0

## Task API: above_or_equal(metric=DMS PSSM value, G (position 14), cutoff=0.009) for item APRITFGGPSDSTGSN G14I (APRITFGGPSDSTISN)
## Result 0.0
